Data origin: the supplement of paper PMC12783771

B1: library; numbered along this chain (parent)
chain: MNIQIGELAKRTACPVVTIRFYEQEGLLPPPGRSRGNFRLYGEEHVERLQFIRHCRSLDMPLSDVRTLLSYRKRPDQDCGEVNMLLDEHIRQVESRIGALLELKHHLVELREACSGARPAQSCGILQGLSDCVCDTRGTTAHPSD

- Variants of: B1
- test.description: sfGFP reporter fluorescence (15 h) (µM FITC); higher = stronger transcriptional activation
- conditions: library round: Round 0; ligand: 1 µM Pb
property.measured: sfGFP reporter fluorescence
Answers are plain numbers.

Examples with answers:
1) V93A; 0.0579
2) D64F; 1.01

Dear colleague, could you please provide sfGFP reporter fluorescence for the variants listed below?
1. Y22N
2. C79N
3. L27I
4. C134M
5. D145A

Ans.
[0.0607, 0.0566, 0.0803, 0.0916, 0.0702]
